- Protocol Details: gradient 5% acetonitrile 3 min, to 50% in 2 min, to 85% in 15 min, held 3 min, 100 µL/min
- Experimental Parameters: column: Zorbax Extend-C18 2.1 x 50 mm; eluents: water / acetonitrile, 0.1% formic acid
Measured Endpoint: RP-LC retention time (s)

Some solved entries appear below for comparison.
Compound | RP-LC retention time (s)
COc1cn2c(cc1=O)C(=O)N(CCNC(=O)c1cc(=O)c3ccccc3o1)CC2 | 562
Nc1ccc(-c2nc3ccccc3s2)cc1 | 803
COc1ccc(S(=O)(=O)N2CCc3c(c(-c4nnc(-c5ccccc5)o4)nn3C)C2)cc1 | 909

[A] Cc1cc(=O)n(CC(=O)NCc2ccc(F)cc2)c(N2CCCCC2)n1
[B] Cc1ccc(CNC(=O)CN2C(=O)C(Oc3ccc(F)cc3)C23CCCCC3)o1 (centres undefined)
Q) Parameter check: reported RP-LC retention time is higher for which label, A or B ? API: response body contains the label of the selected item.
A) B
(B: 1020 s, A: 656 s)

[1] COc1ccc(-c2cc3n(n2)CCCN(S(=O)(=O)c2ccc(NC(C)=O)cc2)C3)cc1
[2] Cc1cc2c(cc(C(=O)NCCCc3ccccc3)n2Cc2ccc(Cl)cc2)o1
Q) Could you kindly indicate whether 1 or 2 has the higher RP-LC retention time value? # respond with the chosen item's label
A) 2

[1] NC(=O)[C@H]1CCCCc2c1[nH]c1ccc(Cl)cc21
[2] O=C(Nc1ccc(Cl)cc1)C1CCCN(c2nc3ccccc3nc2C(F)(F)F)C1 (centres undefined)
Q) Pick one, 1 or 2 : lowest reported RP-LC retention time. In your reply, give the label of the chosen option.
A) 1
(1: 819 s, 2: 1290 s)

[a] O=C(N[C@H]1C[C@@H]2C[C@H]1N(C(=O)COc1cccc(Cl)c1)C2)c1cccnc1
[b] Cc1nc(OCC(=O)NC2CCCCC2)c2c(-c3ccccc3)noc2n1
Q) // compare measured RP-LC retention time between a and b ; output the lower one Label of pick, please.
A) a
(a: 656 s, b: 1010 s)

====

- Protocol Details: gradient 5% acetonitrile 3 min, to 50% in 2 min, to 85% in 15 min, held 3 min, 100 µL/min
- Experimental Parameters: column: Zorbax Extend-C18 2.1 x 50 mm; eluents: water / acetonitrile, 0.1% formic acid
Measured Endpoint: RP-LC retention time (s)

These solved cases illustrate the format of a correct answer.
Compound | Reported Result
COc1ccc(C(=O)c2cnc3cc4c(cc3c2N2CCN(C)CC2)OCCO4)cc1 | 560
CCc1noc(NC(C)=O)c1-c1ccc(C)c(S(=O)(=O)N2CCC(C)CC2)c1 | 929
CCOC(=O)c1ccccc1NC(=O)N(Cc1cc(=O)[nH]c2ccccc12)C(C)C | 891
O=C(Nc1cccc(OCc2nnc(-c3ccccc3)o2)c1)c1ccnc(Cl)c1 | 926

[A] COc1ccc(N2CCN(CC(O)c3ccc(C)cc3)CC2)cc1 (stereo not given)
[B] Fc1ccc(Cn2cccc2-c2nc(-c3ccncc3)no2)cc1
Q) Of A and B , which one carries the higher reported RP-LC retention time? Identify your selection by its label.
A) B

====

- Protocol Details: gradient 5% acetonitrile 3 min, to 50% in 2 min, to 85% in 15 min, held 3 min, 100 µL/min
- Experimental Parameters: column: Zorbax Extend-C18 2.1 x 50 mm; eluents: water / acetonitrile, 0.1% formic acid
Measured Endpoint: RP-LC retention time (s)

[A] COc1ccc(-c2c(C(=O)NCCN3CCN(C)CC3)nc3ccccn23)cc1
[B] Cc1cc(C)cc(N2CCC(NC(=O)Nc3ccccc3)C2=O)c1 (stereo not given)
Q) Between the entries labelled A and B , which has a larger RP-LC retention time value on record? Indicate your choice by writing its label.
A) B
(B: 862 s, A: 574 s)

[a] O=C(COc1ccccc1)N1CC(n2cnnc2C2CC2)C1
[b] O=C(O)c1ccc(NCc2nc3ccccc3[nH]2)cc1
Q) Which entry has a larger number for RP-LC retention time, a or b ? Lab note: record the label of whichever item you select.
A) b
